TEST_TARGET: T1, recombinant soluble human TREM2 protein (human TREM2 ECD-FlagHis) (human, UniProt Q9NZC2 19-174)
T1 sequence: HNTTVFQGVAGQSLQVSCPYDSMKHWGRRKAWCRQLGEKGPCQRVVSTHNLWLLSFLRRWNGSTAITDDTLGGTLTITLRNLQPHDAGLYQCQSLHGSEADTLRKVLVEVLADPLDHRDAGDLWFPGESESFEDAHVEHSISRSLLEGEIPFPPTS
PROCEDURE_SUMMARY: Octet BLI binning; competitor: load Ab 24G6

>  <BINDER>
4G10 (antibody, human IgG2, V domains shown, human IgG2 from hybridoma) VH: EVQLVQSGAEVKKPGESLKISCKGSGYSFPSYWIAWVRQMPGKGLEWMGIIYPGDSDTRYSPSFQGQVTISADKSISTAFLKWSSLKASDTAMYFCARQGIEVTGTGGLDVWGQGTTVTVSS VL: DIQMTQSPSSLSASVGDRVTITCRASQGIRNDLGWYQQKPGNAPKRLIYAASSLPSGVPSRFSGSGSGPEFTLTISSLQPEDFATYYCLQHNSYPWTFGQGTKVEIT

>  <sandwich binding signal>
0.184

$$$$
